- assay-details: ovarian cancer cell viability with rucaparib, profiling panel, oncology-focused library, rucaparib conditional (AID 1508598)
- reported-conditions: patient-derived ovarian cancer cells, CellTiter-Glo viability, 144 h; at 1.25 µM; OCI-C5x cells; with rucaparib 10 µM; stronger effect = lower value; 100% = cells with rucaparib alone
endpoint: viability (%)
Give just the numeric value; % need not be written.

Example compounds with recorded viability:
compound | experimental-result
CN(CCOc1ccc(CC2SC(=O)NC2=O)cc1)c1ccccn1 (configuration not stated) | 107
CC1=C(/C=C/C(C)=C/C=C/C(C)=C/C(=O)O)C(C)(C)CCC1 | 101
CCN(CC)C(=S)SSC(=S)N(CC)CC | 121

(Q) viability for Cc1ccc(-c2cc(C(F)(F)F)nn2-c2ccc(S(N)(=O)=O)cc2)cc1 ?
(A) 113

(Q) How about O=c1[nH]cnc2[nH]ncc12 ?
(A) 122

(Q) How about S=c1nc[nH]c2nc[nH]c12 ?
(A) 105

(Q) How about CCCCCCNC(=O)n1cc(F)c(=O)[nH]c1=O ?
(A) 129
